Data credit: PubChem BioAssay AID1159580

# normalized growth values compiled below
# testDetails: chemical genetic growth profiling, strain panel (AID 1159580);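 also: tested at 20 µM; growth read once vehicle control cultures reached saturation at 30 °C; 1 = growth at the plate median or of vehicle wells; lower values mean less growth of the strain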
# conditionContext: S. cerevisiae deletion strains, growth OD, locus YOR106W, strain vam3, hits give low values
Among all 5,500 compounds or so, about 2,000 (36%) were called active. Roughly 18% stayed inconclusive and do not appear here. Some of the results follow.
Just the number, please.

Example results:
compound	quantitativeResult
CCOC(=O)c1ncn2c1CN(C)C(=O)c1cc(F)ccc1-2	1.01
CC(=O)[C@H]1CCC2C3C[C@H](C)C4=CC(=O)CC[C@]4(C)C3[C@@H](O)C[C@@]21C (some centres undefined)	0.955
CC(=O)O[C@]1(C(C)=O)CCC2C3C=C(C)C4=CC(=O)CCC4(C)C3CCC21C (some centres undefined)	0.877
CN1CCc2cc3c(cc2C1O)OCO3 (centres undefined)	1.01
CC1(C)C2CC[C@]3(C)C(C(=O)C=C4[C@@H]5C[C@@](C)(C(=O)O)CC[C@]5(C)CC[C@]43C)[C@@]2(C)CC[C@@H]1O (some centres undefined)	0.925

(Q) Name the recorded normalized growth for COC1C(O)C(O)C(O)[C@@H](O)C1O (some centres undefined) .
(A) 0.96

(Q) Please do the same for CC1(C)C2CC[C@]3(C)C(C(=O)C=C4[C@H]5C[C@@](C)(C(=O)O)CC[C@]5(C)CC[C@]43C)[C@@]2(C)CC[C@@H]1O (some centres undefined) as well.
(A) 0.76

(Q) Also `O=[N+]([O-])O[C@H]1CO[C@H]2[C@@H]1OC[C@H]2O[N+](=O)[O-]` , if possible.
(A) 1

(Q) Another: CC1(C)C2CC[C@]3(C)C(C(=O)C=C4[C@@H]5C[C@@](C)(C(=O)O)CC[C@]5(C)CC[C@]43C)[C@@]2(C)CC[C@@H]1OC(=O)CCC(=O)O (some centres undefined)
(A) 0.896

====

# testDetails: chemical genetic growth profiling, strain panel (AID 1159580);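 also: tested at 20 µM; growth read once vehicle control cultures reached saturation at 30 °C; 1 = growth at the plate median or of vehicle wells; lower values mean less growth of the strain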
# conditionContext: S. cerevisiae deletion strains, growth OD, locus YIL125W, strain kgd1, hits give low values
Out of some 5,500 compounds screened, about 2,000 (36%) were called active. Not shown: some 18% with an inconclusive outcome. The list shows a part of the results.
readoutName: normalized growth
Field format: numeric only.

(Q) Item CC(=O)O[C@]1(C(C)=O)CCC2C3C=C(C)C4=CC(=O)CCC4(C)C3CCC21C (stereo not given in full) has what recorded normalized growth?
(A) 0.982

(Q) Can you check `COc1ccc2c(c1)OC[C@@H](Cc1ccc(OC)c(OC)c1)[C@@H]2O` next?
(A) 0.996

(Q) Moving on to COc1cccc2c1CCC1CC(=O)CCC21C (stereo not given)
(A) 0.977

(Q) Please answer likewise for `Cc1ccc2c(c1)CC[C@H]1CC(=O)CC[C@]21C`
(A) 0.999

(Q) Request: `CC(C)=CCc1c(O)cc2oc(C)cc(=O)c2c1O`
(A) 0.904

(Q) Please answer likewise for `COc1ccc(C[C@H]2NC[C@H](O)[C@H]2OC(C)=O)cc1`
(A) 1.01

(Q) Now consider `CCN(CC)C(=S)SSC(=S)N(CC)CC` and answer again.
(A) 0.0593

(Q) Request: COc1cc2c(cc1OC)C(=O)C(CC1CCN(Cc3ccccc3)CC1)C2 (stereo not given)
(A) 1.01

(Q) # iterate: `NC/C=C/C(=O)O`
(A) 1.01

(Q) // same read-out, input: `CC(C)(C)CC(C)(C)c1ccc(OCCOCC[N+](C)(C)Cc2ccccc2)cc1`
(A) 0.991

(Q) Record: `O=[N+]([O-])O[C@H]1CO[C@H]2[C@@H]1OC[C@H]2O[N+](=O)[O-]`
(A) 1.01

(Q) Also, CCCCCC(C)N (stereo not given) please.
(A) 1

(Q) Now give it for `C=C(C)/C=C1/C=CC(=O)C(C)=C1` too.
(A) 0.0607

(Q) Another compound to check: `C=CCc1ccc2c(c1)OCO2`
(A) 0.988

(Q) And the next one, CC(=O)O[C@]1(C(C)=O)CCC2C3C[C@H](C)C4=CC(=O)CC[C@]4(C)C3CC[C@@]21C (stereo not given in full) ?
(A) 0.996

(Q) Lookup `O=C(/C=C/C=C/c1ccc2c(c1)OCO2)N1CCCCC1`
(A) 0.96

(Q) Let us now turn to OCC(O)Cc1ccc2c(c1)OCO2 (stereo not given)
(A) 1.02

(Q) Try this compound next: `Cc1cc(C(C)(C)CC(C)(C)C)ccc1OCCOCC[N+](C)(C)Cc1ccccc1`
(A) 0.0749

(Q) Next record, please: `CCc1nc(N)nc(N)c1-c1ccc(Cl)cc1`
(A) 1.01

(Q) Please give the result for `N=c1nc(N2CCCCC2)cc(N)n1O` too.
(A) 0.985
